Biological target: human FAS (Homo sapiens)
Sequence (P49327 whole entry): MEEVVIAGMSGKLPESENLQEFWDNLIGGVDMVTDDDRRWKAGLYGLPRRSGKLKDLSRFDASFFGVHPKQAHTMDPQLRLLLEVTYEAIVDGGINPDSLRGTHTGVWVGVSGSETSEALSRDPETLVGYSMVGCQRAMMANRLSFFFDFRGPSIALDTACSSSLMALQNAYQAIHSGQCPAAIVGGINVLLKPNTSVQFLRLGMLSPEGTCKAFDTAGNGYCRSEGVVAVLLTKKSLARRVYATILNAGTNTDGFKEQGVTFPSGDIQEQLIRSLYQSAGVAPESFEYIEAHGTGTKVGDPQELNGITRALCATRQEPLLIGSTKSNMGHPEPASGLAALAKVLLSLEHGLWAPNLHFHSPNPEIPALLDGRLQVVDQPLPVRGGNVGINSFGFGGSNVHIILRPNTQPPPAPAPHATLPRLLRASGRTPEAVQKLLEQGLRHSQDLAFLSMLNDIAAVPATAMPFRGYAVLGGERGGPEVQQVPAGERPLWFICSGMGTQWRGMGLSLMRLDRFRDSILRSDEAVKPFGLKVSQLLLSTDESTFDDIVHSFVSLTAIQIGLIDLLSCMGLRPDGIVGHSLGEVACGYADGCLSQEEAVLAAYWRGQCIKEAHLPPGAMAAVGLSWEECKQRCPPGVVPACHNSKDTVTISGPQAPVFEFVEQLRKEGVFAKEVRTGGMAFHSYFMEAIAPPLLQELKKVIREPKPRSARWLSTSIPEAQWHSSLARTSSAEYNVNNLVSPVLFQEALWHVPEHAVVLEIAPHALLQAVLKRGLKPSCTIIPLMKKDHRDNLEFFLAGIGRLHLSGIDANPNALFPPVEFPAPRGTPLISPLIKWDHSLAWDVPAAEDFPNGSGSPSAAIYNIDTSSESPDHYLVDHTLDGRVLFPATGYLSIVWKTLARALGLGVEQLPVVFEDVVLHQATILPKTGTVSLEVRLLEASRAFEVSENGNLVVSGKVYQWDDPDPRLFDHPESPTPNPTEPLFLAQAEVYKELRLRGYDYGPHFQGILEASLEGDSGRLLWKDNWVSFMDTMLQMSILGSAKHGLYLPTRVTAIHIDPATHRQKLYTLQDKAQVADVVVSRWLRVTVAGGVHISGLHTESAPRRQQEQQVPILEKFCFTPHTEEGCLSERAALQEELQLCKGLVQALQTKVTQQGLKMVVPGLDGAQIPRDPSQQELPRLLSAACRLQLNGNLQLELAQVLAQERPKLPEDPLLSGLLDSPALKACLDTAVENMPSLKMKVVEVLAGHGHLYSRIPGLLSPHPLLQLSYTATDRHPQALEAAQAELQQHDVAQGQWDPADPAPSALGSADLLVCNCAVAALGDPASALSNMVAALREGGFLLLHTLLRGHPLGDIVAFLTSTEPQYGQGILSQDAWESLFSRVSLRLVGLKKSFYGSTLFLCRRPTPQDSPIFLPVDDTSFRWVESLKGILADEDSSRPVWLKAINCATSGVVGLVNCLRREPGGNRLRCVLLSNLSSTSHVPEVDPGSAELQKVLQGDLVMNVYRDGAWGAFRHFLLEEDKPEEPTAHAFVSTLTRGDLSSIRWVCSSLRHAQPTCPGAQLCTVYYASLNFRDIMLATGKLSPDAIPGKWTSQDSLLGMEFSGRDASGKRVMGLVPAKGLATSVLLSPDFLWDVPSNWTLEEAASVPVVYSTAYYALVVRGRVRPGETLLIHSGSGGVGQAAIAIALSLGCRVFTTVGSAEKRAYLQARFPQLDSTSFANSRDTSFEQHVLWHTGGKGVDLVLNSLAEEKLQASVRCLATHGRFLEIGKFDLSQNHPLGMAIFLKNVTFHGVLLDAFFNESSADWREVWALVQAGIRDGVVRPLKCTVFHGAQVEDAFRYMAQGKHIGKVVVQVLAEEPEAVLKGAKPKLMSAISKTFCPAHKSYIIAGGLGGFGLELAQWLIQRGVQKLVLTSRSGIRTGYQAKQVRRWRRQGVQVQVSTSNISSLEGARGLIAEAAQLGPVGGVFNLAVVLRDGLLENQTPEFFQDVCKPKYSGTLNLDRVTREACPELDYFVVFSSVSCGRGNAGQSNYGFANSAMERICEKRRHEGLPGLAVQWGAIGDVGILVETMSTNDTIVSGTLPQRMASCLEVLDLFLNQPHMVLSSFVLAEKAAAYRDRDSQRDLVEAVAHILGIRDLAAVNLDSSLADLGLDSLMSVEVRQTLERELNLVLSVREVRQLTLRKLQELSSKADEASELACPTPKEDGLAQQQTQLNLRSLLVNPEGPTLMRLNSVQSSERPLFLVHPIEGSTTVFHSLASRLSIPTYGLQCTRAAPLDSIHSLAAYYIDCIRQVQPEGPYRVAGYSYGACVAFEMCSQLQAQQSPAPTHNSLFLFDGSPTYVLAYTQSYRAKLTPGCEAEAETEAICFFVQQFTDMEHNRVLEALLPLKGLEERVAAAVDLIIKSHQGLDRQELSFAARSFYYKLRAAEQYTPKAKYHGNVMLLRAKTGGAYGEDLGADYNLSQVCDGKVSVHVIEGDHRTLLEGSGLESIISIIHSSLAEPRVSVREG
Assay: FAS inhibition assay (standard and slow-binding)
Assay type: biochemical
Conditions: standard and slow-binding assays; read-out: human FAS inhibition: no inhibition at concentrations up to
Metric: IC50

# Compound, Metric, Data value
measured = [
    ("C=CCC1(CC=C)C(=O)S[C@](C)(CCCCCCCC)C1=O [Compound 4]", "IC50", "> 310 µM"),
]

====

# key: entry, value: pIC50
Target: human FAS (Homo sapiens)
Assay: FAS inhibition assay (standard and slow-binding)
Type: biochemical
Conditions: slow binder requires preincubation at 37° C. prior to FAS assay; read-out: FAS Inhibition IC50
pIC50: −log10 of the molar value.
Metric: pIC50

# Compound, Data value
measured = [
    ("CCCCC1OC(=O)C(=O)C1C(=O)OCC (centres unmarked)", "< 3.96"),
    ("C=CCC1(CC=C)C(=O)S[C@](C)(CCCCCCCC)C1=O", "< 4.11"),
]

The reported measurements were obtained from patent US20100168218A1.
